Biological target: HLA-DR DRB1*0101 (human)
Experiment: competition assay, purified HLA, inhibition of 125I-labelled reference peptide
Kindly state IC50 for each of the entries shown.
Numbers only, in µM.

The examples below pair each entry with its known result.
{"binder": "VERILKEESDEALKM (modifications not checked) [Flu.NS1.68]", "measured.value": 5.19}
{"binder": "QKAMMDQVRESRNPG (modifications not checked) [Flu.NP.238]", "measured.value": 17.6}
{"binder": "VMRMGDLHSLQNRNG (modifications not checked) [Flu.NS2.125]", "measured.value": 0.249}
{"binder": "DILMRMSKMQLGSSS (modifications not checked) [Flu.NS2.87]", "measured.value": 2.14}

Q) IC50 lookup needed for LILYDKEEIRRIWRQ (modifications not checked) [Flu.NP.111] , thanks.
A) 7.18
